system: mu opiate receptor (MOR); test: MOR agonist activity using [35S]GTPγS binding assay in striatal membranes; format: biochemical; settings: 0.1 μM; average of two runs
Assay readout: MOR agonist activity, FLNA-Binding Compound as Agonist 0.1 μM (preliminary study) (%)

molecule=O=S(=O)(c1ccc(OC(F)(F)F)cc1)N1CCOC12CCN(CC1CC1)CC2 value_reported=133.9
molecule=Cc1ccc(S(=O)(=O)N2CCOC23CCN(CC2CCC2)CC3)cc1 value_reported=156.6
molecule="Cc1ccc(S(=O)(=O)N2CCOC23CCN(CC2CC2)CC3)cc1 [Compound C0134M]" value_reported=150.7
molecule="C[C@@H](NC(=O)[C@@H](N)Cc1ccc(O)cc1)C(=O)NCC(=O)N(C)[C@@H](Cc1ccccc1)C(=O)NCCO [DAMGO, [D-Ala2, N-MePhe4, Gly-ol]-enkephalin, reference compound]" value_reported=144.7
molecule=C=CCN1CCC2(CC1)OCCN2S(=O)(=O)c1ccc(C)cc1 value_reported=163.1

====

tested on: mu opiate receptor (MOR); assay: MOR agonist activity using [35S]GTPγS binding assay in striatal membranes; assay type: biochemical; details: Series C-2; 1 μM compound; [35S]GTPγS binding to Gαo, striatal membranes
Assay readout: MOR agonist activity, percent [35S]GTPγS binding at the stated compound concentration (%)

compound="Cc1ccc(S(=O)(=O)N2CCOC23CCN(CC2CC2)CC3)cc1 [Compound C0134M]" value_reported=207.3
compound="O=C1CNC2(CCNCC2)N1Cc1ccccc1 [Compound C0114M]" value_reported=144.3
compound="COc1ccc(S(=O)(=O)N2CCSC23CCNCC3)cc1 [S-C0027]" value_reported=286.8
compound="CC(=O)c1ccc(S(=O)(=O)N2CCOC23CCN(CC2CC2)CC3)cc1 [Compound C0095M]" value_reported=224.6
compound="CC(=O)c1ccc(S(=O)(=O)N2CCC3(CC2)NC(=O)CO3)cc1 [Compound C0087M]" value_reported=329.6
compound="COc1ccc(S(=O)(=O)N2CCOC23CCN(C)CC3)cc1 [Compound C0088M]" value_reported=355.3
compound="COc1ccc(S(=O)(=O)N2CCOC23CCN(CC2CC2)CC3)cc1 [Compound C0090M]" value_reported=341.0
compound="CC(=O)c1ccc(S(=O)(=O)N2CCC3(CC2)NCCS3)cc1 [Compound C0060]" value_reported=218.9
compound="CS(=O)(=O)c1ccc(S(=O)(=O)N2CCOC23CCNCC3)cc1 [Compound C0116M]" value_reported=302.8
compound="COc1ccc(S(=O)(=O)N2CCOC23CCN(C(C)C)CC3)cc1 [Compound C0133M]" value_reported=214.8
compound="CN1CCC2(CC1)NC(=O)CN2Cc1ccccc1 [Compound C0104M]" value_reported=238.9
compound="COc1ccc(NC(=O)N2CCC3(CC2)NCCO3)cc1 [Compound C0151M-2]" value_reported=397.6
compound="CS(=O)(=O)c1ccc(S(=O)(=O)N2CCOC23CCN(CC2CC2)CC3)cc1 [Compound C0126M]" value_reported=265.3

====

test system: glioblastoma cells (U-87 MG); assay: [3H]glucose uptake; assay type: cell-based, human; conditions: 4 days; read-out: EC50, inhibition of glucose uptake
Assay readout: EC50

compound="CN1CCC2(CC1)NCC(=O)N2Cc1ccccc1 [Compound C0105]" assay_readout=EC50 value_reported="~0.1 nM"

Reference for the values: patent US10363239B2
